B1: TPR 5TU (parent)
chain: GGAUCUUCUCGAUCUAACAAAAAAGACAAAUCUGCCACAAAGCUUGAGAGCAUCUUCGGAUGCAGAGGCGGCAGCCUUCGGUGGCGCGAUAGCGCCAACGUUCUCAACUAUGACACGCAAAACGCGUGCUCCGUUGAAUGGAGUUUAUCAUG

Variants of: B1
Assay details: polymerase ribozyme fitness, log enrichment relative to wild type (log ratio); higher = more active; in vitro selection for triplet polymerase activity
Fewer inactive variants are shown than the library holds.
Measured attribute: polymerase ribozyme fitness (log ratio)
No unit in the answer, only the number.

Recorded results for 8 variants are shown here.
| Variant label | polymerase ribozyme fitness (log ratio) |
| --- | --- |
| C99G U101A | -1.12 |
| A39G C57A C87U | -1.73 |
| C75G C85U | -3.58 |
| C5U C96U | 0.36 |
| C35U C93G G141A | -3.56 |
| G50U G83C | -0.813 |
| A40C C96U A122G G124C | -0.809 |
| A41C G59A G94A A119C | -1.52 |

Attention now shifts to the item below.
Request the reported polymerase ribozyme fitness (log ratio) associated with C14G C131U
-1.27

The values you see were collected from the RNAGym collection of RNA variant scans (doi:10.1073/pnas.2313332121).
